target: MMP 13 (Homo sapiens, UniProt P45452); assay: MMP 13 inhibition (HTS); type: biochemical; conditions: 0.2 μM
measured-metric: MMP 13 % inhibition at 0.2 μM (HTS) (%)
Give the value in % but do not write % after it.

For O=C(CCC(Sc1ccccc1C(F)(F)F)C(=O)NO)NO (stereo not drawn) on MMP 13 (Homo sapiens, UniProt P45452), measured MMP 13 % inhibition at 0.2 μM (HTS) was 83

For CCCCCCCCC(C(=O)NO)[S+]([O-])c1ccc([S+](C)[O-])cc1 (stereo not drawn) on MMP 13 (Homo sapiens, UniProt P45452), measured MMP 13 % inhibition at 0.2 μM (HTS) was 38

For CCC(SCC(=O)OC)C(=O)NO (stereo not drawn) on MMP 13 (Homo sapiens, UniProt P45452), measured MMP 13 % inhibition at 0.2 μM (HTS) was 0
